// reported protein stability index per item
B1: DVL3 (parent)
chain: HPDPAPFCADNPSELPPPMERTGG

variants of: B1; assay: protein stability index of a GFP-peptide fusion (GPS, HEK-293T) (PSI 1-6); higher = more stable; conditions: c terminus: a fixed tail appended;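 further: lentivirally expressed fusions sorted by FACS into six bins by GFP to DsRed ratio, PSI derived from sequencing read proportions per bin multiplied by bin number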
Please state the value as a number alone, without comment.

protein stability index measured on P6W = 3.3

protein stability index measured on P6H = 3.46

protein stability index measured on P12V = 2.3
